# TARGET_SYSTEM: Gal(b1-3)GlcNAc(a1-6)Gal(b1-4)GlcNAc
# TEST: glycan array binding signal (z-score within array); higher = stronger binding
# COND: glycan notation: IUPAC condensed, linker removed
The entries come from a sample that favours the strongest signals as a whole.
// reported glycan array binding signal (z-score) for each item listed
ASSAY_METRIC: glycan array binding signal (z-score)

>>> reported_result("ArathEULS3 (Arabidopsis thaliana), Q945P1 (protein) MEHHHQHHRHHQRDDGEDDRQSFGVPPPHVDAPPQPHGLYQSQPHFDPYAPTPQAPAPYRSETQFEPHAPPPYRSEPYFETPAPPPSFGHVSHVGHQSPNESYPPEHHRYGGYQQPSNSLLESHGDHSGVTHVAHHSSNQPQSSSGVYHKPDENRLPDNLAGLAGRATVKVYSKAEPNYNLTIRDGKVILAPADPSDEAQHWYKDEKYSTKVKDADGHPCFALVNKATGEAMKHSVGATHPVHLIRYVPDKLDESVLWTESKDFGDGYRTIRMVNNTRLNVDAYHGDSKSGGVRDGTTIVLWDWNKGDNQLWKIFPFILEQKLISEEDLNSAVDHHHHHH")
-0.235
>>> reported_result("UDA (Urtica dioica), P11218 (protein) MMMRFLSAVVIMSSAMAVGLVSAQRCGSQGGGGTCPALWCCSIWGWCGDSEPYCGRTCENKCWSGERSDHRCGAAVGNPPCGQDRCCSVHGWCGGGNDYCSGSKCQYRCSSSVRGPRVALSGNSTANSIGNVVVTEPLFDQMFSHRKDCPSQGFYSYHSFLVAAESFPAFGTIGDVATRKREVAAFLAHISQATSGERSDVENPHAWGLCHINTTTVTENDFCTSSDWPCAAGKKYSPRGPIQLTHNFNYGLAGQAIGEDLIQNPDLVEKDPIISFKTALWFWMSQHDNKPSCHDIVLNANSAANRIPNKGVIGNIISRAFGHDDFAVRSSSIGFYKRYCDMLGVSYGHDLKYWFDNTPSSEFQRIQMRVAA")
-0.166
